Biological target: T1, EsCas13d, nuclease-dead (Eubacterium siraeum, UniProt B0MS50, R295A;H300A;R849A;H854A)
T1 sequence: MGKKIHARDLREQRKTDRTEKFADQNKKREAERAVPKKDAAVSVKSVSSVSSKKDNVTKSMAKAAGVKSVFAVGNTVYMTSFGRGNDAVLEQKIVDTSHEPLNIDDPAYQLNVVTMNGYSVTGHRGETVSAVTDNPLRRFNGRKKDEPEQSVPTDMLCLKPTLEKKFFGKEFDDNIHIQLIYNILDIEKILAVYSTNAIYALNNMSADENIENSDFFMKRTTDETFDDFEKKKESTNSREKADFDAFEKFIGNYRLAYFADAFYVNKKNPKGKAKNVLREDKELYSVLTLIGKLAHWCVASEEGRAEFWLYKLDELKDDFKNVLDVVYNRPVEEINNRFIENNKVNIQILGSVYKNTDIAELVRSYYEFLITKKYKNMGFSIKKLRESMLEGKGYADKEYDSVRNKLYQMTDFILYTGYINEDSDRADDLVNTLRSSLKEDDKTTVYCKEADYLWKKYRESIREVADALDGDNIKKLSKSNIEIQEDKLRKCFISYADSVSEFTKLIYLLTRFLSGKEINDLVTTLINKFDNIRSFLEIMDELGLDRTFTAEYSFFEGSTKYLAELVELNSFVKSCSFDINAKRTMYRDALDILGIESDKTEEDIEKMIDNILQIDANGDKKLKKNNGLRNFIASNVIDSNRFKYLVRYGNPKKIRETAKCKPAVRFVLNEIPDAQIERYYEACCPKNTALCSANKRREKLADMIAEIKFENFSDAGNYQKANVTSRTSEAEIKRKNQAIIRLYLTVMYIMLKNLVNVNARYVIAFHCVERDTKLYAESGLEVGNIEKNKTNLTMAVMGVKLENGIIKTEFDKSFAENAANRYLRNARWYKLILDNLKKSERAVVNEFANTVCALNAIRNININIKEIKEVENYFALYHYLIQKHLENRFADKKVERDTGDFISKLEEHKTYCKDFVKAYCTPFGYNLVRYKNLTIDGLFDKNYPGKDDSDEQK
Experiment: crRNA (strand 1, pre-loaded); Mg2+; 40 mM Tris-HCl pH 7.5, 150 mM NaCl, 6 mM MgCl2, 1 mM DTT, 0.1% Tween-20, 0.2 mg/ml BSA; 25 C; 10 min per concentration, then washed
Settings: tags: His6-TwinStrep-SUMO cleaved; N-terminal SNAP kept (SNAP-Surface 488); label: 3' end held by stalled T7 RNA polymerase
Each record is given fulfilled if its reported Kd is strictly below 40 nM. Records at or above 40 nM are given not fulfilled.

Consider the worked cases shown below.
binder | label_class
target 2 MT 5'PFS UAA 3'PFS ACC (mixed) RNA 1: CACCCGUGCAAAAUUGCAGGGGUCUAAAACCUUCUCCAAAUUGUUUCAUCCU RNA 2: GGGAAUGGAUCCACAUCUACGAAUUCUAAAGGAUGAAACAAUUUGGAGAAGACCAGAUCGGAAGAGCACACGU | fulfilled
target 1 insC 3' of 15,insU 3' of 13 (mixed) RNA 1: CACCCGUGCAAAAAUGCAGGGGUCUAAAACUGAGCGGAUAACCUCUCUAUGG RNA 2: GGGAAUGGAUCCACAUCUACGAAUUCGUACCAUAGAGCAGUGUUAUCCGCUCACCGAGAUCGGAAGAGCACACGU | fulfilled
target 1 MT 5'PFS GCG 3'PFS UGC (mixed) RNA 1: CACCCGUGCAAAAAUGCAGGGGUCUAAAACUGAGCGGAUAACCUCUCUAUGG RNA 2: GGGAAUGGAUCCACAUCUACGAAUUCGCGCCAUAGAGAGGUUAUCCGCUCAUGCAGAUCGGAAGAGCACACGU | fulfilled

Consider the additional binder presented here.
Q: Does the reported Kd of the following binder sit strictly below 40 nM? target 1 insU 3' of 20,insC 3' of 20 (mixed) RNA 1: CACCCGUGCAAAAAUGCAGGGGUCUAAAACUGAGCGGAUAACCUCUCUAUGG RNA 2: GGGAAUGGAUCCACAUCUACGAAUUCGUACCAUCUAGAGAGGUUAUCCGCUCACCGAGAUCGGAAGAGCACACGU
A: not fulfilled
